meta.source: patent US20120316071A1

Exercise: for every item that follows, state its recorded ECL signal.
target: T1, rHuman P-Cadherin/Fc Chimera, CF (R&D Systems Cat#861-PC) (human, UniProt P22223 108-654); assay: ECL multispot (MSD) binding assay, antigen spotted on plate, Fab 0.04 uM;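 also: purified Fab incubated 1 h at 20 °C on antigen spots, detected via TAG-labelled antibody, ECL read against each well's blank, with signal-to-blank of at least 4 scored as binder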
T1 construct: Bought recombinant protein; Fc part of the bought chimera not given

Fab VH5-51_IGHD5-18*01>3_IGHJ4*01 G100K/G104T (H:KT) & V3-4_IGLJ1*01 I98A (Fab, V domains shown, Fab; Expressed from Plasmid A (CH1, His6 and Flag tags) and Plasmid E (lambda CL); also called KT & I98A) VH: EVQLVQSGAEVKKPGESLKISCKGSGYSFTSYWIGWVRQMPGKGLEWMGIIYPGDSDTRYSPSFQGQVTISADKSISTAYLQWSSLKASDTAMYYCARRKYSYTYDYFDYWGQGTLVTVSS VL: QTVVTQEPSFSVSPGGTVTLTCGLSSGSVSTSYYPSWYQQTPGQAPRTLIYSTNTRSSGVPDRFSGSILGNKAALTITGAQADDESDYYCVLYMGSGASYVFGTGTKVTVL; 359

Your task in this section: give ECL signal for each listed record.
1. Fab VH5-51_IGHD5-18*01>3_IGHJ4*01 G100K/G104T (H:KT) & V3-4_IGLJ1*01 Y93A (Fab, V domains shown, Fab; Expressed from Plasmid A (CH1, His6 and Flag tags) and Plasmid E (lambda CL); also called KT & Y93A) VH: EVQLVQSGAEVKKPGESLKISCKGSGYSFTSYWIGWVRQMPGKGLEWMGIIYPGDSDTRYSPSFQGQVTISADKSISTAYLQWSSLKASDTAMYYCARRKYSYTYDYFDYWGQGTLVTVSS VL: QTVVTQEPSFSVSPGGTVTLTCGLSSGSVSTSYYPSWYQQTPGQAPRTLIYSTNTRSSGVPDRFSGSILGNKAALTITGAQADDESDYYCVLAMGSGISYVFGTGTKVTVL
2. Fab VH5-51_IGHD5-18*01>3_IGHJ4*01 G100K/G104T (H:KT) & V3-4_IGLJ1*01 M94A (Fab, V domains shown, Fab; Expressed from Plasmid A (CH1, His6 and Flag tags) and Plasmid E (lambda CL); also called KT & M94A) VH: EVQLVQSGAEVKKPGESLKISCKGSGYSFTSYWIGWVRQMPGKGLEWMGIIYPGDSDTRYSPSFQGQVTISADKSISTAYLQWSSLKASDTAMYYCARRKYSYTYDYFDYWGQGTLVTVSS VL: QTVVTQEPSFSVSPGGTVTLTCGLSSGSVSTSYYPSWYQQTPGQAPRTLIYSTNTRSSGVPDRFSGSILGNKAALTITGAQADDESDYYCVLYAGSGISYVFGTGTKVTVL

Resp:
1. 497
2. 472
